This listing pairs compounds with measured EC50.
Tested on: Col2
PROTOCOL_DETAILS: Cytotoxicity against human Col2 cells
Format: functional
CONDITION_SET: read-out: ED50 (the source's name)

| COMPOUND | UNIT_OF_MEASUREMENT | RELATIONAL_OPERATOR | EC50 |
| --- | --- | --- | --- |
| CCCCCCCCO[C@@H]1O[C@@H](C)[C@H](OC(=O)CCCCC)[C@@H](O[C@@H]2O[C@@H](C)[C@H](OC(C)=O)[C@@H](O[C@@H]3O[C@@H](C)[C@H](OC(C)=O)[C@@H](OC(C)=O)[C@H]3O)[C@H]2OC(C)=O)[C@H]1O [MEZZETTIASIDE 3] | µg/mL | = | 4.9 |
| CCCCCCCCO[C@@H]1O[C@@H](C)[C@H](OC(=O)CCCCC)[C@@H](O[C@@H]2O[C@@H](C)[C@H](O)[C@@H](OC(C)=O)[C@H]2OC(C)=O)[C@H]1O [MEZZETTIASIDE 9] | µg/mL | > | 20 |
| CCCCCCCCO[C@@H]1O[C@@H](C)[C@H](OC(=O)CCCCC)[C@@H](O[C@@H]2O[C@@H](C)[C@H](OC(C)=O)[C@@H](O)[C@H]2OC(C)=O)[C@H]1O [MEZZETTIASIDEIDE 10] | µg/mL | > | 20 |
| CCCCCCCCO[C@@H]1O[C@@H](C)[C@H](OC(=O)CCCCC)[C@@H](O[C@@H]2O[C@@H](C)[C@H](OC(C)=O)[C@@H](O[C@@H]3O[C@@H](C)[C@H](OC(C)=O)[C@@H](O)[C@H]3O)[C@H]2OC(C)=O)[C@H]1O [MEZZETTIASIDE 4] | µg/mL | = | 6.2 |
| CCCCCCCCO[C@@H]1O[C@@H](C)[C@H](OC(=O)CCCCC)[C@@H](O[C@@H]2O[C@@H](C)[C@H](OC(C)=O)[C@@H](O[C@@H]3O[C@@H](C)[C@H](O)[C@@H](O)[C@H]3OC(C)=O)[C@H]2OC(C)=O)[C@H]1O [MEZZETTIASIDE 8] | µg/mL | = | 8.2 |
| CCCCCCCCO[C@@H]1O[C@@H](C)[C@H](OC(=O)CCCCC)[C@@H](O[C@@H]2O[C@@H](C)[C@H](OC(C)=O)[C@@H](O[C@@H]3O[C@@H](C)[C@H](OC(C)=O)[C@@H](O)[C@H]3OC(C)=O)[C@H]2OC(C)=O)[C@H]1O [MEZZETTIASIDE 2] | µg/mL | = | 4.3 |
| CCCCCCCCO[C@@H]1O[C@@H](C)[C@H](OC(=O)CCCCC)[C@@H](O[C@@H]2O[C@@H](C)[C@H](OC(C)=O)[C@@H](OC(C)=O)[C@H]2OC(C)=O)[C@H]1O [MEZZETTIASIDE 11] | µg/mL | = | 9 |

====

System: LNCaP
PROTOCOL_DETAILS: Cytotoxicity against human LNCAP cells
Format: functional
CONDITION_SET: read-out: ED50 (the source's name)
Below, each entry is listed with its recorded EC50.
ENDPOINT_LABEL: EC50

| COMPOUND | OBS_VALUE |
| --- | --- |
| CCCCCCCCO[C@@H]1O[C@@H](C)[C@H](OC(=O)CCCCC)[C@@H](O[C@@H]2O[C@@H](C)[C@H](OC(C)=O)[C@@H](OC(C)=O)[C@H]2OC(C)=O)[C@H]1O [MEZZETTIASIDE 11] | > 20 µg/mL |
| CCCCCCCCO[C@@H]1O[C@@H](C)[C@H](OC(=O)CCCCC)[C@@H](O[C@@H]2O[C@@H](C)[C@H](OC(C)=O)[C@@H](O[C@@H]3O[C@@H](C)[C@H](OC(C)=O)[C@@H](O)[C@H]3O)[C@H]2OC(C)=O)[C@H]1O [MEZZETTIASIDE 4] | > 20 µg/mL |
| CCCCCCCCO[C@@H]1O[C@@H](C)[C@H](OC(=O)CCCCC)[C@@H](O[C@@H]2O[C@@H](C)[C@H](OC(C)=O)[C@@H](O[C@@H]3O[C@@H](C)[C@H](O)[C@@H](O)[C@H]3OC(C)=O)[C@H]2OC(C)=O)[C@H]1O [MEZZETTIASIDE 8] | > 20 µg/mL |

====

PROTOCOL_DETAILS: Cytotoxicity against human BC1 cells
Type: functional
CONDITION_SET: read-out: ED50 (the source's name)
Below is a list of entries, each paired with its recorded EC50 value.

| MOLECULE | EC50 |
| --- | --- |
| CCCCCCCCO[C@@H]1O[C@@H](C)[C@H](OC(=O)CCCCC)[C@@H](O[C@@H]2O[C@@H](C)[C@H](OC(C)=O)[C@@H](OC(C)=O)[C@H]2OC(C)=O)[C@H]1O [MEZZETTIASIDE 11] | > 20 µg/mL |
| CCCCCCCCO[C@@H]1O[C@@H](C)[C@H](OC(=O)CCCCC)[C@@H](O[C@@H]2O[C@@H](C)[C@H](OC(C)=O)[C@@H](O)[C@H]2OC(C)=O)[C@H]1O [MEZZETTIASIDEIDE 10] | > 20 µg/mL |
| CCCCCCCCO[C@@H]1O[C@@H](C)[C@H](OC(=O)CCCCC)[C@@H](O[C@@H]2O[C@@H](C)[C@H](OC(C)=O)[C@@H](O[C@@H]3O[C@@H](C)[C@H](O)[C@@H](O)[C@H]3OC(C)=O)[C@H]2OC(C)=O)[C@H]1O [MEZZETTIASIDE 8] | > 20 µg/mL |

Data credit: ChEMBL document CHEMBL1151328
